Source of measurements: ChEMBL document CHEMBL4400556

System: Cytosolic phospholipase A2 (Homo sapiens)
Sequence (whole entry): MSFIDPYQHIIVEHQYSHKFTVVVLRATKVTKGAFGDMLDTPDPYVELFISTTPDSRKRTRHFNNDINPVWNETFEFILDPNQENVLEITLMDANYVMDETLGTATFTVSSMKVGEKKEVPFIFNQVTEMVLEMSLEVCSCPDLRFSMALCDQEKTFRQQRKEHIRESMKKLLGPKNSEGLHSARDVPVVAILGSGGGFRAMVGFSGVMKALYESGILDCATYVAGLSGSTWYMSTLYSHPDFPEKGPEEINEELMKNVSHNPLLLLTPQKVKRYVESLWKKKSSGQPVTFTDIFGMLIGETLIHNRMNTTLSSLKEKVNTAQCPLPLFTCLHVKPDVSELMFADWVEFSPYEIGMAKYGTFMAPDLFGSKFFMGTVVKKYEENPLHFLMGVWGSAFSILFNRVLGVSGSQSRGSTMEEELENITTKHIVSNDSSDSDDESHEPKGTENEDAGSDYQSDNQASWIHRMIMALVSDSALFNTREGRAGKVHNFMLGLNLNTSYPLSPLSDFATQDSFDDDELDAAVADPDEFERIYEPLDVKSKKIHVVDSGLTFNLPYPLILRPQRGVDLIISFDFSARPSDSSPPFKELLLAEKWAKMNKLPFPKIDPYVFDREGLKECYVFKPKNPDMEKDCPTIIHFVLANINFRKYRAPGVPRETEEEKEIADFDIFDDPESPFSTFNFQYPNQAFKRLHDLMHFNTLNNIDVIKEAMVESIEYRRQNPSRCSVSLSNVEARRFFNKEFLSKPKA
Assay text: Inhibition of human recombinant G4A cPLA2 at 0.091 mole fraction using arachidonyl-1-14C PAPC , PAPC and PIP2 incubated for 30 mins by HPLC-MS analysis based radioactivity-based group specific mixed micelle assay
Outcome measure: inhibition
Answer format: value, then unit.

GET /values?readout=inhibition&system=Cytosolic phospholipase A2 (Homo sapiens)&item= CCCC1OC(=O)C1CCCCc1ccc2ccccc2c1 (stereo unspecified) 71%

GET /values?readout=inhibition&system=Cytosolic phospholipase A2 (Homo sapiens)&item= CCC[C@@H]1OC(=O)[C@@H]1CCCc1ccc(OC)cc1 (racemic) 95%

GET /values?readout=inhibition&system=Cytosolic phospholipase A2 (Homo sapiens)&item= CCC[C@H]1OC(=O)[C@@H]1CCCc1ccc2ccccc2c1 (racemic) 73%

GET /values?readout=inhibition&system=Cytosolic phospholipase A2 (Homo sapiens)&item= CCC[C@@H]1OC(=O)[C@@H]1CCCc1ccccc1 (racemic) 97%

GET /values?readout=inhibition&system=Cytosolic phospholipase A2 (Homo sapiens)&item= CCCCCCC1OC(=O)C1CCCc1ccc2ccccc2c1 (stereo unspecified) 54%

GET /values?readout=inhibition&system=Cytosolic phospholipase A2 (Homo sapiens)&item= CCCC1OC(=O)C1CCCc1ccc2ccccc2c1 (stereo unspecified) 77%

GET /values?readout=inhibition&system=Cytosolic phospholipase A2 (Homo sapiens)&item= CCC[C@H]1OC(=O)[C@@H]1CCCc1ccc(OC)cc1 (racemic) 85%

GET /values?readout=inhibition&system=Cytosolic phospholipase A2 (Homo sapiens)&item= CCCC1OC(=O)C1CCCCc1ccccc1 (stereo unspecified) 84%

GET /values?readout=inhibition&system=Cytosolic phospholipase A2 (Homo sapiens)&item= CCC[C@@H]1OC(=O)[C@@H]1CCCCc1ccc2ccccc2c1 (racemic) 72%

GET /values?readout=inhibition&system=Cytosolic phospholipase A2 (Homo sapiens)&item= CCC[C@H]1OC(=O)[C@@H]1CCCc1ccccc1 (racemic) 90%

GET /values?readout=inhibition&system=Cytosolic phospholipase A2 (Homo sapiens)&item= CCCCCCC1OC(=O)C1CCCc1ccc(-c2ccccc2)cc1 (stereo unspecified) 58%

GET /values?readout=inhibition&system=Cytosolic phospholipase A2 (Homo sapiens)&item= CCC[C@H]1OC(=O)[C@@H]1CCCCc1ccc2ccccc2c1 (racemic) 59%

GET /values?readout=inhibition&system=Cytosolic phospholipase A2 (Homo sapiens)&item= CCCC1OC(=O)C1CCCc1ccc(OC)cc1 (stereo unspecified) 76%

GET /values?readout=inhibition&system=Cytosolic phospholipase A2 (Homo sapiens)&item= CCCC1OC(=O)C1CCCc1ccccc1 (stereo unspecified) 81%

GET /values?readout=inhibition&system=Cytosolic phospholipase A2 (Homo sapiens)&item= CCC[C@@H]1OC(=O)[C@@H]1CCCCc1ccccc1 (racemic) 94%

GET /values?readout=inhibition&system=Cytosolic phospholipase A2 (Homo sapiens)&item= CCCCCCC1OC(=O)C1CCCc1ccccc1 (stereo unspecified) 91%

GET /values?readout=inhibition&system=Cytosolic phospholipase A2 (Homo sapiens)&item= CC(C)C1OC(=O)C1CCCc1ccccc1 (stereo unspecified) 85%

GET /values?readout=inhibition&system=Cytosolic phospholipase A2 (Homo sapiens)&item= CCC[C@@H]1OC(=O)[C@@H]1CCCc1ccc2ccccc2c1 (racemic) 89%

GET /values?readout=inhibition&system=Cytosolic phospholipase A2 (Homo sapiens)&item= CCC1OC(=O)C1CCCc1ccc2ccccc2c1 (stereo unspecified) 85%

GET /values?readout=inhibition&system=Cytosolic phospholipase A2 (Homo sapiens)&item= CCC[C@H]1OC(=O)[C@@H]1CCCCc1ccccc1 (racemic) 88%

GET /values?readout=inhibition&system=Cytosolic phospholipase A2 (Homo sapiens)&item= CC1OC(=O)C1CCCc1ccc2ccccc2c1 (stereo unspecified) 85%
